Tested on: NCI-H1651
test-details: relative viability (nuclei count vs DMSO), 5 days (fraction); higher = more cells survive
condition-details: first compound 0.08 µM
observation-type: relative viability
The answer should be a number; do not append a unit.

# lookup: relative viability of O=c1cc(-c2cccc3c2Sc2ccccc2S3)oc(N2CCOCC2)c1 + Cc1nc(NC(=O)N2CCC[C@H]2C(N)=O)sc1-c1ccnc(C(C)(C)C(F)(F)F)c1 [Alpelisib] (partner 2 µM) 1.02

Please give the measured relative viability for this molecule: COc1nc(C)cnc1NS(=O)(=O)c1cccnc1-c1ccc(-c2nnco2)cc1 [Zibotentan] + C[C@]1(O)C[C@@H](c2nc(-c3ccc4ccc(-c5ccccc5)nc4c3)c3c(N)nccn32)C1 [Linsitinib] (partner 1 µM) 1.17

Give the measured relative viability of COc1nc(C)cnc1NS(=O)(=O)c1cccnc1-c1ccc(-c2nnco2)cc1 [Zibotentan] + Nc1ncn([C@H]2C[C@H](O)[C@@H](CO)O2)c(=O)n1 [Decitabine] (partner 2 µM) . 0.657

Which relative viability is listed for COc1nc(C)cnc1NS(=O)(=O)c1cccnc1-c1ccc(-c2nnco2)cc1 [Zibotentan] + CC1(C)CCC(c2ccc(Cl)cc2)=C(CN2CCN(c3ccc(C(=O)NS(=O)(=O)c4ccc(N[C@H](CCN5CCOCC5)CSc5ccccc5)c(S(=O)(=O)C(F)(F)F)c4)cc3)CC2)C1 [Navitoclax] (partner 0.5 µM) ? 1.08
